Assay: qHTS of TDP-43 Inhibitors; note: nearly all actives have a fitted effect of over 50% in size
Settings: TDP-43 expressing yeast growth rescue, BacTiter-Glo, 24 h; series mostly up to 46.1 µM
Out of some 410,000 compounds screened, about 7,200 (1.8%) were called active. Another 7% or so got no clear call; they are omitted. Calls come from the whole dose curve; as a rule, active = well fitted activation curve with a large enough effect; inconclusive = small, poorly fitted or top-dose-only effect, or another doubt; inactive = no such curve, though single readings can be large or run the other way. The list comes from a sample in which actives are over-represented; it also holds close analogues and randomly drawn compounds.
Outcome codes: active, inactive

Molecule: CSc1cccc(NC(=O)CSc2ccccc2)c1
Class Label: active

Molecule: Cc1ccc(-n2cnc3cc(C(=O)NCCC4=CCCCC4)ccc32)cc1Cl
Class Label: inactive

Molecule: COc1ccc2c(C)c(CCC(=O)NCc3ccc(OC)c(OC)c3)c(=O)oc2c1
Class Label: inactive

Molecule: CC(C)(C)c1ccc(C(=O)NCC(c2ccc(Cl)cc2)N2CCOCC2)cc1 (centres undefined)
Class Label: inactive

Molecule: CC(=O)Nc1ccc(NC(=O)C2CCCN2S(=O)(=O)c2cccc(C(F)(F)F)c2)cc1 (centres undefined)
Class Label: inactive

Molecule: COCCCNC(=O)c1ccc2c(c1)ncn2-c1ccccc1OC
Class Label: inactive

Molecule: CC(/C=C/c1ccco1)=N/NC(=O)C1COc2ccccc2O1 (centres undefined)
Class Label: inactive

Molecule: O=C(CSc1ccccc1)Nc1cccc(S(=O)(=O)N2CCOCC2)c1
Class Label: inactive

Molecule: O=S(=O)(c1cccc(C(F)(F)F)c1)N1c2ccccc2-n2cccc2C1c1cccnc1 (centres undefined)
Class Label: active

Molecule: COc1cc2nc(NCC(C)c3ccccc3)n3nc(-c4ccccc4)nc3c2cc1OC (centres undefined)
Class Label: inactive

Molecule: Cc1ccc(NC(=O)CSc2nnc3[nH]c(=O)cc(C)n23)cc1Cl
Class Label: inactive

Molecule: Cc1ccc(Cl)cc1N1CCN(C(=O)c2cn(C)c3ccc(S(=O)(=O)N(C)C4CCCCC4)cc3c2=O)CC1
Class Label: inactive

Molecule: Cc1nnc(SCC(=O)Nc2cccc(N)c2)n1-c1ccccc1
Class Label: inactive

Molecule: CC(=O)c1ccc(S(=O)(=O)NCCC(=O)N2CCN(c3ccccn3)CC2)cc1
Class Label: inactive

* * *

Assay: qHTS of TDP-43 Inhibitors; note: nearly all actives have a fitted effect of over 50% in size
Conditions: TDP-43 expressing yeast growth rescue, BacTiter-Glo, 24 h; series mostly up to 46.1 µM
Screen size: about 410,000 compounds; about 7,200 (1.8%) were called active. About 7% were inconclusive and are not listed. Calls follow the shape of the dose curve; as a rule, active = well fitted activation curve with a large enough effect; inconclusive = small, poorly fitted or top-dose-only effect, or another doubt; inactive = no such curve, though single readings can be large or run the other way. The list comes from a sample in which actives are over-represented; it also holds close analogues and randomly drawn compounds.
Outcome codes: yes for active, no for inactive

Molecule: O=C(CSc1nccn1-c1cccc(F)c1)NC1CCCC1
Class Label: no

Molecule: Cc1n[nH]c(C)c1S(=O)(=O)N1CCCC(C(=O)NCC2COc3ccccc3O2)C1 (stereo not drawn)
Class Label: no

Molecule: Cc1cn(C)c(CC(=O)NCc2ccc(Cl)cc2)c1C(=O)O
Class Label: no

Molecule: Cc1cc(NC(=O)CSc2nccn2-c2ccc([N+](=O)[O-])cc2)no1
Class Label: no

Molecule: O=C1C=C(c2cccc(Cl)c2)C[C@@H](c2ccc(F)cc2)C1
Class Label: yes

Molecule: Cc1ccc(-c2nc(Cn3c(=O)cc(-c4ccccc4)c4c(C)nn(C)c43)c(C)o2)cc1
Class Label: no

Molecule: N#CCSc1nn(-c2ccc(F)cc2)c(=S)s1
Class Label: yes

Molecule: COc1ccccc1C1=CC(=O)C[C@H](c2ccc(F)cc2)C1
Class Label: yes

Molecule: COc1ccc(CCNc2nc(-c3ccc(Cl)cc3)cc(C(F)(F)F)n2)cc1OC
Class Label: no

Molecule: COc1ccc(N2CCN(C(=O)C3CCCN(C(=O)c4cc5sccc5n4C)C3)CC2)cc1 (stereo not drawn)
Class Label: no

Molecule: Cc1cc(NC(=O)C2CCC(CNS(=O)(=O)c3ccc(Br)s3)CC2)ccc1Br (stereo not drawn)
Class Label: no

Molecule: COc1ccc([C@H]2CC(=O)C=C(/C=C/c3ccc(Cl)cc3)C2)cc1
Class Label: no

Molecule: COc1cccc(C(=O)Nc2c3c(nn2-c2cccc(C)c2C)CS(=O)(=O)C3)c1OC
Class Label: no

* * *

Assay: qHTS of TDP-43 Inhibitors; note: nearly all actives have a fitted effect of over 50% in size
Settings: TDP-43 expressing yeast growth rescue, BacTiter-Glo, 24 h; series mostly up to 46.1 µM
The whole screen tested about 410,000 compounds, of which about 7,200 (1.8%) were called active. Roughly 7% stayed inconclusive and do not appear here. Calls come from the whole dose curve; as a rule, active = well fitted activation curve with a large enough effect; inconclusive = small, poorly fitted or top-dose-only effect, or another doubt; inactive = no such curve, though single readings can be large or run the other way. This is one part of a sample in which actives are shown more often than they occur.
Outcome codes: label 1 for active, label 0 for inactive

Compound: CCOC(=O)c1ccc(NC(=O)c2csc3c2CCCCC3)cc1
Class Label: label 1
//
Compound: O=C(CSc1nc2ccccc2o1)N1CCN(c2ccc(Cl)cc2)CC1
Class Label: label 0
//
Compound: CC(CNC(=O)c1nnc(Cc2cccc(F)c2)o1)c1ccccc1 (centres undefined)
Class Label: label 1
//
Compound: CC1Cc2cc(S(=O)(=O)CCC(=O)NCc3ccc(Cl)cc3)ccc2N1C(=O)C1CC1 (centres undefined)
Class Label: label 0
//
Compound: COc1ccc(OC)c(CNC(=O)c2c3c(nc4ccccc24)C(=O)N(C2CCCCC2)C3)c1
Class Label: label 0
//
Compound: Cc1cccc(N2CCN(C(=O)c3oc(=O)c4ccccc4c3-c3ccccc3)CC2)c1C
Class Label: label 0
//
Compound: CNC(=O)c1nnc(Cc2ccc(Cl)cc2)o1
Class Label: label 0
//
Compound: Cc1ccc2oc(=O)c3cnn(CC(=O)N4CCN(c5cccc(Cl)c5)CC4)c3c2c1
Class Label: label 0
//
Compound: Cc1ccc(CCNC(=O)c2ccc3c(c2)nc2n3CCC(C)C2)cc1 (centres undefined)
Class Label: label 0
//
Compound: Cc1ccc(NC(=O)Cn2c(=O)n(-c3ccccc3)c(=O)c3c4c(sc32)CCCC4)cc1
Class Label: label 0
//
Compound: O=C(Nc1cc(C(F)(F)F)ccc1Cl)c1nc2ccccc2nc1N1CCCCC1
Class Label: label 0
//
Compound: CCCc1ccc(OCC(=O)NNC(=S)NC(=O)c2ccco2)cc1
Class Label: label 1
//
Compound: Cc1ccccc1CNC(=O)CCc1cn(Cc2ccccc2C)c2ccccc12
Class Label: label 0
//
Compound: O=C(NCc1ccc2c(c1)CCN2C(=O)c1ccccc1)Nc1cc(F)ccc1F
Class Label: label 0
//
Compound: NS(=O)(=O)c1ccc(CCNC(=O)CCCCCn2c(=O)[nH]c3ccccc3c2=O)cc1
Class Label: label 0
//
Compound: COc1ccc(N(CC(=O)NC(C)(C)C)C(=O)c2ccco2)cc1
Class Label: label 0
//
Compound: O=C(NCCCN1CCN(c2cccc(Cl)c2)CC1)c1nnc(Cc2ccc(F)cc2Cl)o1
Class Label: label 0
//
Compound: CCOc1ccc(-n2c(C)nc3c(cnn3-c3ccc(C)cc3)c2=O)cc1
Class Label: label 0
//
Compound: CCCSc1ncc(Cl)c(C(=O)Nc2sc3c(c2C(=O)NCCOC)CCCC3)n1
Class Label: label 0
//
Compound: COc1ccccc1CCC(=O)NNC(=O)c1ccncc1
Class Label: label 0
//
Compound: COc1ccc(Cn2ccnc2SCC(=O)Nc2ccc3c(c2)OCO3)cc1
Class Label: label 0
//
Compound: Cn1c(C(=O)Nc2cccc(C(F)(F)F)c2)cc2c(=O)n3ccccc3nc21
Class Label: label 0
//
Compound: CN1c2ccc(C=O)c3c(C=O)ccc(c23)N(C)C1(C)C
Class Label: label 0
//
Compound: CCCC(=O)Nc1ccc2oc(-c3ccc(O)c(Br)c3)nc2c1
Class Label: label 0
//
Compound: Cc1ccc(Cl)cc1NC(=O)Cc1ccc(-n2c(C)nc3cccnc32)cc1
Class Label: label 0
//
Compound: CC(C)(C)OC(=O)N1CCC(c2c(C(=O)N3CCN(c4cccc(Cl)c4)CC3)cnn2-c2cccc(Cl)c2)CC1
Class Label: label 0
//
Compound: Cc1nn(C(C)C(=O)NCCc2ccccc2)c(=O)c2c1sc1ccccc12 (centres undefined)
Class Label: label 0
//
Compound: COc1ccc(S(=O)(=O)c2cn(C)c3cc(N4CCCCC4)c(F)cc3c2=O)cc1
Class Label: label 0
//
Compound: COc1ccccc1-c1cc2nc(C)c(CCC(=O)O)c(C)n2n1
Class Label: label 0

* * *

Test: qHTS of TDP-43 Inhibitors; note: nearly all actives have a fitted effect of over 50% in size; note: potency is the fitted concentration of half-maximal effect
Conditions: TDP-43 expressing yeast growth rescue, BacTiter-Glo, 24 h; series mostly up to 46.1 µM
Among all 410,000 compounds or so, about 7,200 (1.8%) were called active. Roughly 7% stayed inconclusive and do not appear here. What follows is part of a selection rich in actives, with near analogues and random picks from the rest.

Molecule: Clc1ccc(C2=CSC3=Nc4cccc5cccc(c45)N23)cc1
Potency: 17.8 µM (active)

Molecule: CCCn1c2ccccc2c2cnn(CC(=O)NCCCOC(C)C)c(=O)c21
Potency: inactive

Molecule: CC(C)CC(=O)NCC(c1ccc2c(c1)OCO2)N1CCN(c2ccc(F)cc2)CC1 (stereo not drawn)
Potency: inactive

* * *

Assay: qHTS of TDP-43 Inhibitors; note: nearly all actives have a fitted effect of over 50% in size
Details: TDP-43 expressing yeast growth rescue, BacTiter-Glo, 24 h; series mostly up to 46.1 µM
Out of some 410,000 compounds screened, about 7,200 (1.8%) were called active. About 7% were inconclusive and are not listed. Calls follow the shape of the dose curve; as a rule, active = well fitted activation curve with a large enough effect; inconclusive = small, poorly fitted or top-dose-only effect, or another doubt; inactive = no such curve, though single readings can be large or run the other way. The sample holds actives, similar compounds and a random draw of the others, so the mix is not that of the screen.
Outcome codes: Y (active), N (inactive)

Compound: Cc1ccc(Cl)cc1NC(=O)NC1COc2ccccc2C1 (configuration not stated)
Class Label: N
//
Compound: COC(=O)C1NN=C(C(=O)c2ccc(Br)cc2)C1c1cccc(Br)c1 (configuration not stated)
Class Label: Y
//
Compound: CCC(=O)Nc1ccc2nc(SCC(=O)N3CCc4ccccc43)sc2c1
Class Label: N
//
Compound: O=C(CN1C(=O)COc2ccc(S(=O)(=O)N3CCCCCC3)cc21)N1CCN(c2cccc(C(F)(F)F)c2)CC1
Class Label: N
//
Compound: CCCn1c2ccccc2c2cnn(CC(=O)NCC3CCN(Cc4ccc(C)cc4)CC3)c(=O)c21
Class Label: N
//
Compound: CCOC(=O)c1cc(-c2ccc(OC)c(S(=O)(=O)Nc3ccc(OC)cc3OC)c2)on1
Class Label: N
//
Compound: CCOc1ccc(NC(=O)CCC(=O)N2CC(C)Oc3ccc(C)cc32)cc1 (configuration not stated)
Class Label: N

These data points were gathered from PubChem BioAssay AID652104.
